Entries annotated with measured TGI
Tested on: MOLT-4 leukemia
Assay Method Text: NCI tumour cell line growth inhibition, 48 h
Measured Quantity: TGI

INSERT INTO assay_data (compound, measured_quantity, result) VALUES
  ('CC(=O)O[C@H]1CC[C@@]2(C)C(=CC[C@H]3C4=CC=C(C(C)=O)[C@@]4(C)CCC32)C1 (stereo partly specified)', 'TGI', '> 100 µM'),
  ('NC(=Nc1ccc(O)cc1)S(=O)(=O)O', 'TGI', '> 100 µM'),
  ('O=C(N=C1SCCN1C(=O)C(C(F)(F)F)C(F)(F)F)C(C(F)(F)F)C(F)(F)F', 'TGI', '> 100 µM'),
  ('Cn1c(C(C#N)c2nc(Cl)ncc2Br)nc2ccccc21 (stereo unspecified)', 'TGI', '> 100 µM'),
  ('C=CC1ON(Cc2ccccc2)CCc2cc(OC)c(OC)cc21 (stereo unspecified)', 'TGI', '> 100 µM'),
  ('OCCSCc1ccccc1', 'TGI', '> 100 µM'),
  ('Cc1sc(C)c(Cc2c(C)sc(C)c2CCl)c1CCl', 'TGI', '> 100 µM'),
  ('Cc1sc2nc(-c3cc([N+](=O)[O-])c(Cl)cc3Cl)c(/C=N/N=C(N)N)n2c1C', 'TGI', '4.64 µM'),
  ('COc1ccc2c(Nc3ccc(NS(C)(=O)=O)cc3)c3ccccc3nc2c1', 'TGI', '22.5 µM'),
  ('CCCCCCCCCCCCCCCCCCNc1ccn(C2OC(COP(=O)(O)OCC3CCC(n4cnc5c(=O)[nH]cnc54)O3)C(O)C2O)c(=O)n1 (stereo unspecified)', 'TGI', '> 100 µM'),
  ('NC1CCN(c2nc(Nc3cccc(C(F)(F)F)c3)c3c(=O)[nH]ccc3n2)CC1', 'TGI', '4.8 µM'),
  ('N#Cc1c(-c2ccccc2)cc(-c2ccc(Nc3nc(Nc4ccc(Cl)cc4)nc(Nc4ccc(Cl)cc4)n3)cc2)nc1N', 'TGI', '4.53 µM'),
  ('O=C(Nc1c[nH]c(=O)[nH]c1=O)C(Cl)Cl', 'TGI', '> 100 µM'),
  ('COc1ccc(C(N)=O)cc1N=NN(C)C', 'TGI', '> 100 µM'),
  ('CC(=O)NCCC1CN(C(=O)/C=C\C#C[Si](C)(C)C)c2ccccc21 (stereo unspecified)', 'TGI', '> 100 µM'),
  ('CNc1ccc(-c2nc3cc(C)ccc3o2)cc1', 'TGI', '> 100 µM');
